# TEST_METHOD_NOTES: Water solubility of 5-HTP free base
# Format: physicochemical
# APPLIED_CONDITIONS: free base form
PROPERTY_LABEL: solubility

Exam item: Item N[C@@H](Cc1c[nH]c2ccc(O)cc12)C(=O)O [5-HTP, 5-hydroxytryptophan] has what recorded solubility?
Marked response: > 10000 µg/mL

---

# TEST_METHOD_NOTES: Absolute and regional intestinal bioavailability of 5-HTP in humans (oral, colonic, intravenous dosing; plasma LC-MS)
# Assay type: in vivo
# APPLIED_CONDITIONS: both sexes, other: colonic (by colonoscopy), human, colonic 200 mg vs IV 50 mg, read-out: absolute bioavailability (F), colonic dosing
# Method: Determination of absolute and regional intestinal bioavailability of 5-HTP in humans. 5-HTP dosing: The free base form of 5-HTP was used (5-HTP has a water solubility of >10 mg/mL). Colonic: 5-HTP free base saline solution 200 mg. Intravenous: 5-HTP free base saline solution 50 mg. […] Plasma samples analysis: Plasma samples were stored at −80° C. until analysis. 5-HTP and the metabolite 5-hydroxyindole-acetic-acid (5-HIAA) were quantified by liquid chromatography with mass-spectrometry detection. […]
PROPERTY_LABEL: bioavailability (%)
# unit: % | format: bare number

Exam item: Item N[C@@H](Cc1c[nH]c2ccc(O)cc12)C(=O)O [5-HTP, 5-hydroxytryptophan] has what recorded bioavailability?
Marked response: 4

Numbers sourced from patent US20210361566A1.
